Cited source: PubChem BioAssay

The reader will find reported inhibition values listed item by item below.
ASSAY: inhibitors of TNFa-induced NFkB p65 translocation, primary screen, imaging, HUVEC, MLSMR starter and 10KST1 sets (AID 438);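 note: compound added about 3h40 before a 20 min TNFalpha stimulation; signal is the nuclear over cytoplasmic p65 intensity ratio per well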
DETAILS: HUVEC TNFa-induced p65 nuclear translocation; at 2 µM, stronger effect = higher value, 0% TNFa-plus-vehicle, 100% no-TNFa wells

MOLECULE	inhibition (%)
COC(=O)CCC(=O)CN	-0.2
C=CCOc1nc2c(c(=O)n(C)c(=O)n2C)n1Cc1ccc(Cl)cc1	7.6
CCC(=O)Oc1ccc(C(CC)C(CC)c2ccc(OC(=O)CC)cc2)cc1 (stereo unspecified)	-8
C=CCOC(=O)C1=C(C)NC(SCC(=O)N(CC)CC)=C(C#N)C1c1ccccc1 (stereo unspecified)	-0.8
Cc1nc(-c2c(-c3ccc(O)cc3O)noc2C(F)(F)F)cs1	-18.3
COc1cc(-c2nn3c(C4CCCCC4)nnc3s2)cc(OC)c1OC	-28.6

====

ASSAY: DUSP6 inhibitors restoring Erk phosphorylation by chemical complementation, primary imaging in DUSP6-transfected HeLa (AID 609)
DETAILS: HeLa MKP-3 transfected, phospho-Erk imaging KS statistic; measured here: cell density z-score; at 10 µM; cells stimulated with TPA for 15 min

MOLECULE	z-score
CCCOc1ccc(/C(O)=C2/C(=O)C(=O)N(CCN(C)C)C2c2ccc(OC)c(OC)c2)cc1 (stereo not given)	-0.67
CC1(C)SC2[C@H](NC(=O)C(NC(=O)N3CCNC3=O)c3ccccc3)C(=O)N2C1C(=O)O (stereo not given in full)	0.0464
COc1ccc(CNC(=O)c2c(C)cc(=O)oc2C)cc1OC	0.057
CCOc1ccc(-c2nnc3sc(-c4ccccc4OC)nn23)cc1	-0.391
CC(NC(=O)Nc1nccs1)(C(F)(F)F)C(F)(F)F	-0.519
CCN(CC)CCNC(=O)c1cc(S(C)(=O)=O)ccc1OC	-1.16
COCCNc1oc(-c2ccc(C)cc2)nc1C#N	-0.898
COC(=O)c1sccc1NC(=O)c1c(C)cc(=O)oc1C	0.942
COc1ccc(CCn2c(C)ccc2C)cc1OC	-0.324
CCOC(=O)CSc1nc2sc3c(c2c(=O)[nH]1)CC(C)(C)OC3	-1.86
CC(C)Cc1nc(NCCN2CCOCC2)c(C#N)c2c1COC(C)(C)C2	-1.39
COc1ccc2c(c1)c(CC(=O)OCC(=O)O)c(C)n2C(=O)c1ccc(Cl)cc1	-0.113
CCCCC(=O)O[C@]1(C(=O)CO)CC[C@H]2[C@@H]3CCC4=CC(=O)CC[C@]4(C)[C@H]3[C@@H](O)C[C@@]21C	-0.284
Cn1c(=O)c2c(nc(Oc3ccc4c(c3)OCO4)n2Cc2ccc(F)cc2)n(C)c1=O	-1.8
COC(=O)C1=C(C)NC(C)=C(C(=O)OC)C1c1ccccc1[N+](=O)[O-]	1.16
CN(C)S(=O)(=O)Nc1ccc(NS(=O)(=O)N(C)C)c(S(=O)(=O)c2ccccc2)c1	-0.765
CCN(CC)C(=O)CN(C#N)c1nc(NC(C)C)nc(NC(C)C)n1	0.0403
O=C(c1cccs1)N1CCC(N2CCN(c3ccccc3)CC2)CC1	0.783
CC(NC(=O)NC(N)=O)(C(F)(F)F)C(F)(F)F	0.562
Cc1ccc(C2C3CN(C(C)C)CC=C3C(C#N)=C(N)C2(C#N)C#N)cc1 (stereo not given)	1.72
COc1ccc(C2CC(=O)C(C=NCCN3CCOCC3)=C(O)C2)cc1 (stereo not given)	0.329
CN1CCN(CCCCC(=O)c2ccccc2)CC1	0.5
CC(=O)c1c(C)c2c(n1CCN(C)C)CCCC2	-0.53
COC(=O)c1n[nH]c2ccccc12	-0.132
CCOc1nc(SCCOc2ccccc2)nc(N(C)C)n1	0.798
NC(Cc1ccc(Oc2ccc(O)cc2)cc1)C(=O)O (stereo not given)	-0.271
O=C1C2ON(c3ccccc3)C(c3cccnc3)C2C(=O)N1c1ccccc1 (stereo not given)	0.476
Cc1ccc2[nH]c3c(c2c1)CCCC3C(N)=O (stereo not given)	-1.12
OCCOCCNc1ncnc2c1cnn2-c1ccccc1	-0.85
O=C(Nn1cnnc1)C(c1ccccc1)c1ccccc1	1.4
COC(=O)c1ccc(Cn2nnc3c(sc4nc(N5CCOCC5)c5c(c43)CCCC5)c2=O)o1	0.962
COc1ccc2oc(=O)c(-c3nc(C)cs3)cc2c1	-0.969
CC(C)C(C(=O)Nc1ncn[nH]1)N1C(=O)c2ccccc2C1=O (stereo not given)	-1.38
CCOC(=O)Cn1c(SC)nc2sc3c(c2c1=O)CC(C)(C)OC3	1.23
CC1(C2(O)CC(c3ccccc3)ON2)CCCCC1 (stereo not given)	-1.89
CCOC(=O)/C(C#N)=C1\Nc2ccccc2N=C1N(CC(C)C)CC(C)C	-0.677
CCCCCC(=O)O[C@]1(C(C)=O)CC[C@H]2[C@@H]3CCC4=CC(=O)CC[C@]4(C)[C@H]3CC[C@@]21C	-1.27
CCOC(=O)c1c(C(F)(F)C(F)(F)C(F)(F)C(F)(F)F)n[nH]c1C	-0.312
CN=c1sc2ccccc2n1CC(O)COCc1ccco1 (stereo not given)	0.277
CCOc1ccc(CC2CC(=O)NC2=O)cc1 (stereo not given)	-0.992
N#CC1=C(N)NC(SCc2ccc(F)cc2)=C(C#N)C12CCCCC2	-0.696
CCOC(=O)CCc1c(C)c(C#N)c2[nH]c3ccccc3n2c1=O	-0.186
CCOC(=O)C(CC(=O)O)N1CCCCC1 (stereo not given)	-1.03
N/C(=N\c1nc2ccccc2o1)NC(=O)c1ccccc1NC(=O)c1ccccc1	1.3
Cc1cc(=O)oc(C)c1C(=O)N1CCN(C)CC1	-1.15

====

ASSAY: inhibitors of mutant huntingtin aggregation, primary screen, imaging, exon1htt(103Q)mCFP cells, high-content imaging (AID 483);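 note: compound exposure lasted 3 days before fixation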
DETAILS: exon1htt(103Q)mCFP cell line, aggregate imaging, at 2 µM; stronger effect = higher value
The reader will find reported inhibition of aggregation values listed item by item below.

COMPOUND	inhibition of aggregation [%]
CC1Cc2ccccc2N1NC(=O)c1ccc(Cl)c(S(N)(=O)=O)c1 (stereo unspecified)	4.2
CCc1cc(=O)oc2c(CN3CCN(C)CC3)c(O)c(Cl)cc12	27.8
COc1ccc2c(C)nc(Nc3nc(C)cc(C)n3)nc2c1	-15.4
Cc1cccc(N(C)C(=S)Oc2ccc3ccccc3c2)c1	1.5
COc1ccc(OC)c(C2C(C#N)=C(N)Oc3cc(C)[nH]c(=O)c32)c1 (stereo unspecified)	19.9
CC(C)(Oc1ccc(CCNC(=O)c2ccc(Cl)cc2)cc1)C(=O)O	5.2
C[C@]12CC[C@@H]3c4ccc(O)cc4CC[C@H]3[C@@H]1CCC2=O	3.1
C=C(C)C1Cc2c(C)nn(-c3nc(C)cc(C)n3)c2C1 (stereo unspecified)	5
C1CCC(C(CC2CCCCN2)C2CCCCC2)CC1 (stereo unspecified)	-15.7
CO[C@@]1(NC(=O)CSCC#N)C(=O)N2C(C(=O)O)=C(CSc3nnnn3C)CS[C@@H]21	3.8
CCCOc1cccc(-c2nnc(N)s2)c1	-31.3

====

ASSAY: DUSP6 inhibitors restoring Erk phosphorylation by chemical complementation, primary imaging in DUSP6-transfected HeLa (AID 609)
DETAILS: HeLa MKP-3 transfected, phospho-Erk imaging KS statistic; measured here: nuclear c-Myc green intensity z-score; at 10 µM; cells stimulated with TPA for 15 min
Each entry gets Criterion not met if its z-score stays under -0.08, and Criterion met if its z-score is -0.08 or above.

COMPOUND	CLASS
COC(=O)C1C(=O)CC(C)(O)C(C(=O)OC)C1c1ccccc1F (configuration not stated)	Criterion not met
CN1CCN2c3ccccc3Cc3ccccc3C2C1 (configuration not stated)	Criterion not met
Cc1c(/C(O)=C2\C(=O)C(=O)N(CCN(C)C)C2c2cccnc2)cnn1-c1ccccc1 (configuration not stated)	Criterion not met
Cc1ccc(N2C(=O)C3ON(c4ccccc4)C(c4ccncc4)C3C2=O)c(C)c1 (configuration not stated)	Criterion not met
CCCCOc1ccc(CSC(CC(=O)O)C(=O)O)cc1 (configuration not stated)	Criterion not met
Cn1c2c(c(=O)n(C)c1=O)C(NC(=O)c1cccs1)(C(F)(F)F)C(=O)N2 (configuration not stated)	Criterion not met
COc1cccc(-c2nnc3sc(-c4ccc(Cl)cc4)nn23)c1	Criterion not met
CCCC1Cc2c(sc3ncnc(N)c23)CO1 (configuration not stated)	Criterion not met
COc1ccc(CCn2c(=N)c(C#N)cc3c(=O)n4ccccc4nc32)cc1	Criterion not met
COc1cc(OC)cc(C(=O)N2CCC(N3CCN(c4ccccc4)CC3)CC2)c1	Criterion not met
CCN(CC)c1ncc(C)c(=O)[nH]1	Criterion not met
Cc1ccc2[nH]c(CCN(C)C)c(CC#N)c2c1	Criterion not met
CC(C)OC(=O)[C@H]1[C@H](c2ccc(Cl)cc2)[C@@](C#N)(C(N)=O)[C@@H]2C=CC(C(N)=O)=CN21	Criterion met
COc1ccc(-c2oc3ncn4nc(Cc5ccccc5)nc4c3c2-c2ccc(OC)cc2)cc1	Criterion met
CCCCOC(=O)CSc1nc(N)c(C#N)c(-c2ccc(OC)cc2)c1C#N	Criterion met
O=S(=O)(c1ccc(Cl)cc1)N1CCC(N2CCCCCC2)CC1	Criterion not met
COc1ccc(CCn2c(C)ccc2C)cc1OC	Criterion met
CCCC(=O)Nc1ccc(OCC(O)CNC(C)C)c(C(C)=O)c1 (configuration not stated)	Criterion not met
c1cc(-c2nnc3sc(C4CCCCC4)nn23)ccn1	Criterion met
COC(=O)c1[nH]c(C)c(/C(O)=C2\C(=O)C(=O)N(CCN3CCOCC3)C2c2cccnc2)c1C (configuration not stated)	Criterion met
COc1ccc(C(=O)C(CN2CCCC2)c2ccccc2)cc1 (configuration not stated)	Criterion met
C=CCOC(=O)C1=C(C)NC(SCC(=O)N(CC)CC)=C(C#N)C1c1ccccc1 (configuration not stated)	Criterion met
